# Tested on: Monochoria vaginalis
# test protocol: Herbicidal effect test by treatment of rice paddy soil (Test Example 1)
# Assay type: in vivo
# condition info: 120 g/10 a, treated immediately after seeding, 14 days after treatment
# Procedure: Wagner pots with an area of 1/10000 ares were filled with a paddy soil, and a compound fertilizer (N:P:K=17:17:17) was mixed after water was added, followed by soil puddling. […] This test was conducted in a double system per one agent solution concentration area, and the herbicidal rates (%) were determined by the following equation (Math. 1) 14 days after the treatment with the agents. […]
property measured: Herbicidal rate, Monochoria vaginalis

INSERT INTO measurements (molecule, target_or_system, result) VALUES
  ('COC1CCCC1n1oc(=O)c(Cc2ccccc2N(S(=O)(=O)C(F)(F)F)S(=O)(=O)C(F)(F)F)c1C (stereo not shown)', 'Monochoria vaginalis', '100%'),
  ('COC1CCCC1n1oc(=O)c(Cc2ccccc2NS(=O)(=O)C(F)(F)F)c1C (stereo not shown)', 'Monochoria vaginalis', '100%'),
  ('COC1CCCC1n1oc(=O)c(Cc2ccccc2N(C(=O)CC(C)C)S(=O)(=O)C(F)(F)F)c1C (stereo not shown)', 'Monochoria vaginalis', '100%');

Now look at this entry.
Exercise: Input CCOC(=O)N(c1ccccc1Cc1c(C)n(C2CCCCC2OC)oc1=O)S(=O)(=O)C(F)(F)F (stereo not shown) , output reported Herbicidal rate, Monochoria vaginalis.
Solution: 100%

====

# Tested on: Chenopodium album
# test protocol: Herbicidal effect test by treatment of stem and leaf in dry field farming (Test Example 4)
# Format: in vivo
# condition info: 120 g/10 a, stem and leaf treatment seven days after seeding, 14 days after treatment
The following molecules are listed with their measured Herbicidal rate, Chenopodium album values.
Field note: include the unit after the figure.

INSERT INTO assay_data (molecule, result) VALUES
  ('COC1CCCC1n1oc(=O)c(Cc2ccccc2N(C(=O)C(C)C)S(=O)(=O)C(F)(F)F)c1C (stereo not shown)', '90%'),
  ('COC1CCCCC1n1oc(=O)c(Cc2ccccc2N(C(=O)Oc2ccccc2)S(=O)(=O)C(F)(F)F)c1C (single isomer, unassigned) [Compound 288]', '90%'),
  ('COC1CCCC1n1oc(=O)c(Cc2ccccc2N(S(=O)(=O)C(F)(F)F)S(=O)(=O)C(F)(F)F)c1C (stereo not shown)', '80%'),
  ('COC1CCCCC1n1oc(=O)c(Cc2ccccc2N(C(=O)Oc2ccccc2)S(=O)(=O)C(F)(F)F)c1C (single isomer, unassigned) [Compound 289]', '90%'),
  ('CCOC(=O)N(c1ccccc1Cc1c(C)n(C2CCCCC2OC)oc1=O)S(=O)(=O)C(F)(F)F (stereo not shown)', '90%'),
  ('COC1CCCCC1n1oc(=O)c(Cc2ccccc2NS(=O)(=O)C(F)(F)F)c1C (stereo not shown)', '90%');

Exercise: Input COC1CCCC1n1oc(=O)c(Cc2ccccc2N(C(=O)OC(C)C)S(=O)(=O)C(F)(F)F)c1C (stereo not shown) , output reported Herbicidal rate, Chenopodium album.
Solution: 90%

Exercise: Input COC1CCCCC1n1oc(=O)c(Cc2ccccc2N(S(=O)(=O)C(F)(F)F)S(=O)(=O)C(F)(F)F)c1C (stereo not shown) , output reported Herbicidal rate, Chenopodium album.
Solution: 80%

Exercise: Input COC1CCCC1n1oc(=O)c(Cc2ccccc2N(C(=O)OCC(C)C)S(=O)(=O)C(F)(F)F)c1C (stereo not shown) , output reported Herbicidal rate, Chenopodium album.
Solution: 90%

Exercise: Input COC1CCCCC1n1oc(=O)c(Cc2ccccc2N(C(=O)OCC(C)C)S(=O)(=O)C(F)(F)F)c1C (stereo not shown) , output reported Herbicidal rate, Chenopodium album.
Solution: 90%
